test: amyloid nucleation score (Sup35N fusion, yeast selection) (log enrichment); library NNK2; higher = more nucleation; inactive = no reads after selection;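 further: zero at mode of non-aggregating sequences after 7 days selection at 30°C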
Outcome label depends on amyloid nucleation score relative to 1: at/above gives 1, below gives 0.

Field: example entries. Status: answers known.
Substance: GNRVYGDYCFYTTMGWASW
Assigned Class: 0
//
Substance: IVFFTECSYSLFRWIMNNVW
Assigned Class: 0

Kindly review the next substance as well.
stdin: Decide: is the reported value of amyloid nucleation score for `PQTLCINISFDYRYMNQVLD` equal to or greater than 1?
stdout: 1

====

experiment: amyloid nucleation score (Sup35N fusion, yeast selection) (log enrichment); library NNK2; higher = more nucleation; inactive = no reads after selection
Property Label: amyloid nucleation score

Consider the reported amyloid nucleation score for these substances:
Substance: TGFCGRHYDLSSSTEDLYLL
amyloid nucleation score: 0.606
//
Substance: LSWDYLSWTREI
amyloid nucleation score: -0.333
//
Substance: YFFITYVPSEAGYRREKWFG
amyloid nucleation score: 7.34
//
Substance: PRQHYSNRGFCFSFILGVGM
amyloid nucleation score: -0.327
//
Substance: GVLYWALLDGGVQRGQDMKL
amyloid nucleation score: 0.641

Hey, can you go through the list below and give me amyloid nucleation score for every item?
1. RTSRVKVR
2. WTWGALDRRSGLFEVGGMYF
3. SYVGICGAMNLCSETVSCMV
4. YLCLTFCNIDNLQVMFKSAY

stdout:
1: 4.13; 2: 0.449; 3: -0.977; 4: 8.21

Hey, can you go through the list below and give me amyloid nucleation score for every item?
1. IGTMVEREKL
2. DYVCGGGFLTKDVSACGLYV
3. RIFVIVAGNYYFLAGFGYLA

stdout:
[0.299, 0.685, -1.74]
